B1: NEK8 (parent)
chain: VVGTPCYISPELCEGKPYNQKSDI

- Variants of: B1
- Protocol text: protein stability index of a GFP-peptide fusion (GPS, HEK-293T) (PSI 1-6); higher = more stable;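 further: lentivirally expressed fusions sorted by FACS into six bins by GFP to DsRed ratio, PSI derived from sequencing read proportions per bin multiplied by bin number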
- Assay context: c terminus: a fixed tail appended
Please enter yes where protein stability index is greater than or equal to 3, and no where it is lower.

{"columns": ["Variant label", "Cat"],
 "data": [
  ["G3L", "no"],
  ["D23N", "no"],
  ["K21N", "no"],
  ["Y18W", "no"],
  ["S22I", "no"],
  ["G15A", "no"],
  ["L12C", "yes"],
  ["V1R", "yes"],
  ["C13D", "yes"],
  ["S9N", "no"]
]}

Determine whether measured protein stability index meets or exceeds 3 for I24H yes

Decide: is the reported value of protein stability index for G15N equal to or greater than 3? no

Given the entry D23W , answer whether its protein stability index meets or surpasses 3. no

Assess whether reported protein stability index for D23R sits at 3 or higher. no

Quick check, protein stability index >= 3? P17C no
